// %Inh lookup, one value per entry
- System: SIK;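 note: KINOMEscan kinase panel screen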
- condition.parameters: concentration: 1 μM, replicates: in singlicate; n = 1
Field: numeric (%). Do not append units.

Answered examples (5):
{"molecule": "COc1cc(Nc2nccc(N3CCC(NC(=O)Nc4cccc(C(C)=O)c4)C3)n2)cc(OC)c1OC (stereo not shown)", "result.type": "%Inh", "observed.result": 0}
{"molecule": "NCCCC(NC(=O)c1cc(Br)c(-c2ccnc3[nH]ccc23)s1)c1ccccc1.O=C(O)C(F)(F)F.O=C(O)C(F)(F)F (stereo not shown)", "result.type": "%Inh", "observed.result": 19}
{"molecule": "Cc1ccc(F)c(C(=O)Nc2cccc(-c3nn4ccccc4c3-c3ccnc(Nc4cccc(F)c4)n3)c2)c1F", "result.type": "%Inh", "observed.result": 68}
{"molecule": "COc1cccc(C(=O)Nc2cccc(Oc3ccc4nc(NC(=O)C5CC5)cn4n3)c2)c1", "result.type": "%Inh", "observed.result": 63}
{"molecule": "Cc1cccc(NC(=O)Nc2ccc(Oc3ncnc4ccn(C)c34)cc2)c1", "result.type": "%Inh", "observed.result": 10}

IN: Consider the molecule C[C@@H]1CC[C@@H](C(=O)Nc2ccccc2)CN1c1cc(-c2ccc3c(N)n[nH]c3c2)nc(N)n1 and give its measured %Inh.
OUT: 0

IN: Consider the molecule c1ccc(-c2n[nH]cc2Nc2ccnc3ccccc23)nc1 and give its measured %Inh.
OUT: 0
